Numbers sourced from paper PMC4573514.

- Test system: VSMC
- method.notes: BrdU incorporation assay (de novo DNA synthesis)
- Format: cell-based
- condition.set: Rattus norvegicus, PDGF-BB 20 ng/mL, read-out: Inhibition of PDGF-stimulated DNA synthesis, BrdU incorporation (IC50)
observation.type: pIC50
Interpret pIC50 as the negative base-10 log of the concentration measured in mol/L.

(Q) Need pIC50, item CCCCCC=CC(=O)CCc1ccc(O)c(OC)c1 [[6]-Shogaol, [6]-shogaol]
(A) 5.52

###

- Tested on: VSMC
- method.notes: Assessment of cytotoxicity by LDH release
- Type: cell-based
- condition.set: PDGF-BB 20 ng/mL, 24 h, n.s. = no significant difference, up to stated concentration

{"columns": ["molecule", "Cell death (LDH release)"],
 "data": [
  ["CCCCCCCC(=O)CCc1ccc(O)c(OC)c1 [[6]-Paradol, [6]-paradol]", "n.s. (up to 30 μM)"],
  ["CCCCCCCC(O)CCc1ccc(O)c(OC)c1 (racemic) [rac-[6]-Dihydroparadol, rac-[6]-dihydroparadol]", "n.s. (up to 30 μM)"]
]}
